Reference for the values: ChEMBL document CHEMBL1857833

system: Trypanosoma brucei; experiment: DNDI: Inhibition of Human African Trypanosomiasis, SBRI 427, in vitro at 2 ug.mL-1; type: functional
Screen size: about 4,400 compounds; about 390 (8.9%) showed an effect of 50% or more. The list comes from a sample in which strong results are over-represented; it also holds close analogues and randomly drawn compounds.
Rule: Fulfilled for % inhibition not less than 20%, Not fulfilled for anything less.

| Molecule | Assigned Class |
| --- | --- |
| Cc1cc(Oc2ccc(/C(=N/O)NC3CCCCC3)cn2)cc(C(C)C)c1 | Not fulfilled |
| Cc1ccc(Oc2ccc(/C(=N/O)Nc3ccccc3)cn2)c(C)c1 | Fulfilled |
| CC(NCc1coc(-c2cccc(F)c2)n1)C(C)(C)C (stereo not drawn) | Not fulfilled |
| Cc1cc(C)cc(Oc2ccc(/C(=N/O)N(C)C3CCCCC3)cn2)c1 | Not fulfilled |
| CN(/C(=N\O)c1ccnc(Oc2ccc(F)c(F)c2)c1)C1CCCCC1 | Fulfilled |
| CC1CCC(N/C(=N\O)c2ccc(Oc3c(F)c(F)cc(F)c3F)nc2)CC1 (stereo not drawn) | Not fulfilled |
| CN(Cc1coc(-c2ccc(C(F)(F)F)cc2)n1)CC1OCCO1 | Not fulfilled |
| Cc1cccc(Oc2ncccc2/C(=N/O)N2CCOCC2)c1C | Not fulfilled |
| CCOc1ccc(Oc2cc(/C(=N/O)NCC(C)(C)C)ccn2)cc1 | Fulfilled |
| O/N=C(\NC1CCCCC1)c1ccnc(Oc2ccc(F)c(Cl)c2)c1 | Fulfilled |
| Cc1ccc(/C(=N/O)N2CCSC2)c(Oc2ccc3oc4ccccc4c3c2)n1 | Not fulfilled |
| Cc1cc(C)cc(Oc2ccc(/C(=N/O)NC3CCc4ccccc43)cn2)c1 (stereo not drawn) | Not fulfilled |
| Cc1ccc(Oc2ccc(/C(=N/O)NC3CCCC3)cn2)c(C)c1 | Fulfilled |
